We begin with IC50 values for UniProt:P10415, as collected from the published literature.

CCCCN(CCCC)C(=O)c1cc(C)n(-c2ccc(NC(=O)c3ccccc3COc3ccccc3)cc2C(=O)N2Cc3ccccc3C[C@H]2CO)n1; 1.12 to 1.18 µM
CCCCN(CCCC)C(=O)c1cc(C)n(-c2ccc(NC(=O)c3oc(-c4ccccc4)nc3C)cc2C(=O)N2Cc3ccccc3C[C@H]2CO)n1; 0.692 to 0.84 µM
CC1(C)CCC(CN2CCN(c3ccc(C(=O)NS(=O)(=O)c4ccc(NC[C@@H]5CN(C6COC6)CCO5)c([N+](=O)[O-])c4)c(-n4ncc5nc6[nH]ccc6cc54)c3)CC2)=C(c2ccc(Cl)cc2)C1; < 0.01 µM
CCCCN(CCCC)C(=O)c1cc(C)n(-c2ccc(NC(=O)Cc3c(F)cccc3Cl)cc2C(=O)N2Cc3ccccc3C[C@H]2CO)n1; 0.409 to 0.43 µM
O=C(NS(=O)(=O)c1ccc(NCC2CCOCC2)c([N+](=O)[O-])c1)c1ccc(N2CCN(C(c3ccc(F)cc3)c3ccc(F)cc3)CC2)cc1Oc1ccc2[nH]ccc2c1; > 0.05 µM

Query string: Query for UniProt:P10415: what IC50 does the record show for `O=C(c1cc(S(=O)(=O)N2CCc3ccccc3C2)c(O)c(O)c1O)N1CCc2ccc(S(=O)(=O)N3CCCCC3)cc2C1` ?
Result string: > 1 µM

Query string: Query for UniProt:P10415: what IC50 does the record show for CN(C)CC[C@H](CSc1ccccc1)Nc1ccc(S(=O)(=O)Nc2ncnc3c2CCN(C2CCN(Cc4ccccc4-c4ccc(Cl)cc4)CC2F)C3)cc1S(=O)(=O)C(F)(F)F (stereo partly drawn) ?
Result string: 0.036 µM

Query string: Query for UniProt:P10415: what IC50 does the record show for `CCCCN(CCCC)C(=O)c1cc(C)n(-c2ccc(NC(=O)c3ccc(COC)o3)cc2C(=O)N2Cc3ccccc3C[C@H]2CO)n1` ?
Result string: 1.13 to 1.3 µM

Query string: Query for UniProt:P10415: what IC50 does the record show for `[2H]C1(N2CCc3c(ncnc3NS(=O)(=O)c3ccc(N[C@H](CCN4CCOCC4)CSc4ccccc4)c(S(=O)(=O)C(F)(F)F)c3)C2)CCN(CC2=C(c3ccc(Cl)cc3)CC(C)(C)CC2)CC1` ?
Result string: 0.041 µM

Query string: Query for UniProt:P10415: what IC50 does the record show for `CN(C)CC[C@H](CSc1ccc(F)cc1)Nc1ccc(S(=O)(=O)Nc2ncnc3c2CCN(C2CCN(Cc4ccccc4-c4ccc(Cl)cc4)CC2)C3)cc1S(=O)(=O)C(F)(F)F` ?
Result string: 0.058 µM

Query string: Query for UniProt:P10415: what IC50 does the record show for `Oc1c(Cc2ccccc2)cc(-c2ccc(CCCCCc3ccccc3)cc2)c(O)c1O` ?
Result string: > 1 µM

Query string: Query for UniProt:P10415: what IC50 does the record show for `CCCCN(CCCC)C(=O)c1cc(C)n(-c2ccc(NC(=O)Cc3ccc(F)cc3Cl)cc2C(=O)N2Cc3ccccc3C[C@H]2CO)n1` ?
Result string: 0.436 to 0.5 µM

---

We begin with IC50 values for Apoptosis regulator Bcl-2 (Homo sapiens), as collected from the published literature.

Example cases with answers are listed next.
CC(c1cc(F)ccc1-c1ccc(Cl)cc1)N1CCC(N2CCc3c(ncnc3NS(=O)(=O)c3ccc(N[C@H](CCN4CCN(C)CC4)CSc4ccccc4)c(S(=O)(=O)C(F)(F)F)c3)C2)CC1 (stereo partly drawn); 80 nM
O=C(Nc1ccccc1)c1cc(S(=O)(=O)Nc2ccccc2)cc(O)c1O; > 1000 nM
CCCCN(CCCC)C(=O)c1cc(C)n(-c2ccc(NC(=O)Cc3noc4ccccc34)cc2C(=O)N2Cc3ccccc3C[C@H]2CO)n1; 61.2 to 66.9 nM
CCCCN(C(=O)c1nn(-c2ccc(C(=O)NS(=O)(=O)c3ccc4ccccc4c3)cc2C(=O)N2CCc3ccccc3C2)c(C)c1Cl)c1ccc(C(=O)OC)cc1; 90 nM
O=C(NS(=O)(=O)c1ccc(NC2CCOC2)c([N+](=O)[O-])c1)c1ccc(N2CCC(CN3CCCCC3c3ccc(Cl)cc3)CC2)cc1Oc1cnc2[nH]ccc2c1 (stereo not drawn); > 50 nM

Continue with the molecule presented below.
Query string: Query for Apoptosis regulator Bcl-2 (Homo sapiens): what IC50 does the record show for `CCCN(CCC)c1ncc(Cl)c(-c2ccc(C(=O)NS(=O)(=O)c3ccc4cccc(Cl)c4c3)cc2C(=O)N2Cc3ccccc3C[C@H]2CN)n1` ?
Result string: 5.09 nM

---

We begin with IC50 values for Apoptosis regulator Bcl-2 (Homo sapiens, UniProt P10415), as collected from the published literature.

CCCCN(CCCC)C(=O)c1cc(C)n(-c2ccc(NC(=O)c3ccc(NS(=O)(=O)Cc4ccccc4)cc3)cc2C(=O)N2Cc3ccccc3C[C@H]2CO)n1; 0.426 to 0.594 µM
CCCCN(CCCC)C(=O)c1cc(C)n(-c2ccc(NC(C)=O)cc2C(=O)N2Cc3ccccc3C[C@H]2CO)n1; 0.462 to 0.478 µM

Query string: Look up IC50: `CCCCNC1=C2C(=NC1=O)c1cccc3c(Sc4ccc(Br)cc4)ccc2c13`
Result string: 0.066 µM

Query string: Look up IC50: `O=C(c1cc(S(=O)(=O)N2CCc3ccccc3C2)c(O)c(O)c1O)N1CCc2ccc(S(=O)(=O)NCCCc3ccccc3)cc2C1`
Result string: ≤ 1 µM

---

We begin with IC50 values for UniProt P10415, as collected from the published literature.

CC1(C)CCC(CN2CCN(c3ccc(C(=O)NS(=O)(=O)c4ccc(NCC5CCOCC5)c([N+](=O)[O-])c4)c(-n4ncc5nc6[nH]ccc6cc54)c3)CC2)=C(c2ccc(Cl)cc2)C1; < 10 nM
CCCCN(CCCC)C(=O)c1cn(C)c(-c2ccc(C(=O)NS(=O)(=O)c3ccc4cccc(I)c4c3)cc2C(=O)N2Cc3ccccc3C[C@H]2CN)n1; 6.97 nM

Query string: Query for UniProt P10415: what IC50 does the record show for `O=C(NS(=O)(=O)c1ccc(NCC2CCOCC2)c([N+](=O)[O-])c1)c1ccc(N2CCN(CC(c3ccccc3)c3ccccc3)CC2)cc1Oc1cnc2[nH]ccc2c1` ?
Result string: > 50 nM

Query string: Query for UniProt P10415: what IC50 does the record show for `CCCCN(CCCC)C(=O)c1cc(C)n(-c2ccc(NC(=O)c3cc4c(OC)c(OC)ccc4[nH]3)cc2C(=O)N2Cc3ccccc3C[C@H]2CO)n1` ?
Result string: 161 to 162 nM

Query string: Query for UniProt P10415: what IC50 does the record show for `CC(C)(C)c1ccccc1S(=O)(=O)c1ccc(NC(=O)c2cc(S(=O)(=O)NCCCc3ccccc3)cc(O)c2O)cc1` ?
Result string: ≤ 1000 nM

Query string: Query for UniProt P10415: what IC50 does the record show for `O=C(Nc1cc(S(=O)(=O)c2ccc(Cl)cc2)ccc1Cl)c1cc(CCc2ccccc2)cc(O)c1O` ?
Result string: > 1000 nM

Query string: Query for UniProt P10415: what IC50 does the record show for `CN(C)CC[C@H](CSc1ccccc1F)Nc1ccc(S(=O)(=O)Nc2ncnc3c2CCN(C2CCN(Cc4ccccc4-c4ccc(Cl)cc4)CC2)C3)cc1S(=O)(=O)C(F)(F)F` ?
Result string: 25 nM

Query string: Query for UniProt P10415: what IC50 does the record show for `CCCN(CCC)c1nn(-c2ccc(C(=O)NS(=O)(=O)c3ccc4ccccc4c3)cc2C(=O)N2Cc3ccccc3C[C@H]2CO)c(C)c1Cl` ?
Result string: 60 nM

---

We begin with IC50 values for Apoptosis regulator Bcl-2 (Homo sapiens), as collected from the published literature.
Just the number in nM, nothing appended.

CN(C)CC[C@H](CSc1ccccc1)Nc1ccc(S(=O)(=O)Nc2ncnc3c2CCN(C2CCN(Cc4ccccc4-c4ccccc4Cl)CC2)C3)cc1S(=O)(=O)C(F)(F)F; 36

Query string: Look up IC50: CCCCc1c(-c2ccc(C(=O)NS(=O)(=O)c3ccc4ccccc4c3)cc2C(=O)N2CCc3ccccc3C2)c(CO)nn1-c1ccc(OCC(O)CO)cc1 (racemic)
Result string: 8.13

Query string: Look up IC50: `CCN(CCO)CC[C@H](CSc1ccccc1)Nc1ccc(S(=O)(=O)NC(=O)c2ccc(N3CCC([C@@H](O)c4ccccc4-c4ccc(Cl)cc4)CC3)cc2)cc1S(=O)(=O)C(F)(F)F`
Result string: 0.5

Query string: Look up IC50: `[2H]C1(N2CCc3c(ncnc3NS(=O)(=O)c3ccc(N[C@H](CCN4CC5CCC(C4)O5)CSc4ccccc4)c(S(=O)(=O)C(F)(F)F)c3)C2)CCN(Cc2cc(F)ccc2-c2ccc(Cl)cc2)CC1`
Result string: 225

Query string: Look up IC50: `O=C1N=C2C(=C1NCCCc1ccccc1)c1cccc3cccc2c13`
Result string: 8
